Exercise: state measured activity coefficient for each of the molecules provided.
- Experiment notes: activity coefficient (dimensionless); of the first substance listed, at infinite dilution; xn = mol fraction of the nth substance listed
- Measurement context: 328.15 K; Liquid; Chromatography; x1 = 0
Answers are plain numbers.

Would you please look over these solved cases?
CCCCC [pentane] + CCCCCCCCCCCCCC[P+](CCCCCC)(CCCCCC)CCCCCC.F[B-](F)(F)F    0.695
C1CCCC1 [cyclopentane] + CCCCCCCCCCCCCC[P+](CCCCCC)(CCCCCC)CCCCCC.F[B-](F)(F)F    0.625
CCO [ethanol] + CCCCCCCCCCCCCC[P+](CCCCCC)(CCCCCC)CCCCCC.[Cl-]    0.735

Switching to the query record.
Input CCCCCCCC [octane] + CCCCCCCCCCCCCC[P+](CCCCCC)(CCCCCC)CCCCCC.O=S(=O)([N-]S(=O)(=O)C(F)(F)F)C(F)(F)F . Output activity coefficient: 0.814

----------
- Experiment notes: activity coefficient (dimensionless); of the first substance listed, at infinite dilution; xn = mol fraction of the nth substance listed
- Measurement context: 318.15 K; Liquid; Chromatography; x1 = 0
Metric: activity coefficient
Answers are plain numbers.

For each of the compounds below, note its activity coefficient.
1. CCCCC [pentane] + CCCCCCCCCCCCCC[P+](CCCCCC)(CCCCCC)CCCCCC.O=S(=O)([N-]S(=O)(=O)C(F)(F)F)C(F)(F)F
2. CCCCC [pentane] + CCCCCCCCCCCCCC[P+](CCCCCC)(CCCCCC)CCCCCC.[Cl-]

**Result**
1. 0.602
2. 0.599

Input C=CCCCCCC [oct-1-ene] + CCCCCCCCCCCCCC[P+](CCCCCC)(CCCCCC)CCCCCC.O=S(=O)([N-]S(=O)(=O)C(F)(F)F)C(F)(F)F . Output activity coefficient: 0.605
